- tested on: HTRA1, Q92743
- Sequence (Q92743 360-477): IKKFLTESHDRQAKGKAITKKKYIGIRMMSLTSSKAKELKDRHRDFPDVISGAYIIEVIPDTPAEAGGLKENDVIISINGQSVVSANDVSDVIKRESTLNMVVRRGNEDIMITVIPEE
- measurement description: holdup assay
- Design: key: below the threshold = too weak to quantify, mostly under pKd 3.1 to 4
- condition details: plain residues with an end cap or a label only (N-terminal biotin on a linker: ado-ado)
property name: pKd
Respond using a number only.

Return reported pKd; argument: SAGADSETHC [SLCO1B1, Q9Y6L6] 3.51

Query (binder): ADEMICITTL [CACNA1D, Q01668] ; field requested: pKd 5.79

Which pKd value belongs to THHRKIHTRV [ZNF599, Q96NL3] ? 3.67

Dear colleague, I am looking for the recorded pKd of the following binder: DSEEELPTRL [GRK6, P43250] 4.18

Please report the recorded pKd for TKEIPNCTSV [SORCS3, Q9UPU3] . 3.82

Name the recorded pKd for IGHEDLETAV [DGKI, O75912] . 3.65

Give its pKd value. Item: EPAKETTTNV [SLC2A3, P11169] 4.04

Fill in: pKd of PLPPEEESWV [GAS2L2, Q8NHY3] is ___ 5.14

What measured pKd goes with HYPASPDSWV [CTNND2, Q9UQB3] ? 4.71

Consider the binder HLSTRQGTCV [ATRNL1, Q5VV63] and give its measured pKd. 4.91
